I'd be grateful if you could share measured TGI for these entries.
Tested on: NCI-H226 lung
assay name: NCI tumour cell line growth inhibition, 48 h

Prompt: Any idea what TGI was measured for O=C1C(N=Nc2ccc(-c3nc4ccccc4[nH]3)cc2)NC(=S)N1c1ccccc1 (configuration not stated) ?
Completion: > 100 µM

Prompt: Any idea what TGI was measured for `O=C(CCCn1ccnc1[N+](=O)[O-])NCCn1ccnc1[N+](=O)[O-]` ?
Completion: > 100 µM

Prompt: Any idea what TGI was measured for O=C(OCc1ccccc1)N1c2cc([N+](=O)[O-])ccc2C(=O)N2CCC[C@H]2C1O (some centres not stated) ?
Completion: > 100 µM

Prompt: Any idea what TGI was measured for OCC(O)C(O)C(O)C(/C=N\Nc1ncnc2ccc(Br)cc12)=N/Nc1ncnc2ccc(Br)cc12 (configuration not stated) ?
Completion: > 100 µM

Prompt: Any idea what TGI was measured for C=C1C(=O)O[C@H]2C[C@@H]1CCC1(C)OC1CC/C(C)=C/CC[C@H]2C (some centres not stated) ?
Completion: 39.4 µM

Prompt: Any idea what TGI was measured for `CCN1CCC(CC(=O)Nc2n[nH]c3nc(-c4cccs4)c(Br)cc23)CC1` ?
Completion: > 25 µM

Prompt: Any idea what TGI was measured for `CCOC(=O)[C@H]1Nc2ccc(Cl)cc2[C@H]2c3ccccc3O[C@H]21` ?
Completion: > 100 µM

Prompt: Any idea what TGI was measured for `COc1ccc(-c2cc(-c3nnc(SCC(=O)Nc4ccc(C(C)=O)cc4)o3)c3ccccc3n2)cc1` ?
Completion: > 100 µM

Prompt: Any idea what TGI was measured for `CC(C)(C)OC(=O)NCC(=O)N1CCCN(C(=O)CNC(=O)OC(C)(C)C)CC1` ?
Completion: > 100 µM

Prompt: Any idea what TGI was measured for `CCOC(=O)C1=C(c2ccccc2)N(c2ccc(OC)cc2)[C@]2(C#N)C(O)=C(Cl)C(Cl)=C(O)[C@]12C#N` ?
Completion: 42.5 µM

Prompt: Any idea what TGI was measured for C#CCOC(=O)C(N)CCCN=C(N)N (configuration not stated) ?
Completion: > 100 µM

Prompt: Any idea what TGI was measured for `Clc1ncnc2c1ncn2CCCCCCCCCCCCn1cnc2c(Cl)ncnc21` ?
Completion: 24.5 µM

Prompt: Any idea what TGI was measured for CCOC(=O)C(NCc1cccc(C(F)(F)F)c1)(NC(=O)c1ccccc1)C(F)(F)F (configuration not stated) ?
Completion: > 100 µM

Prompt: Any idea what TGI was measured for C=CCN(CC=C)CC(C(C)=O)C(c1ccccc1)c1c(O)c2ccccc2oc1=O (configuration not stated) ?
Completion: > 100 µM

Prompt: Any idea what TGI was measured for `CC(C)CCC/C(CBr)=C(\Cl)CCl` ?
Completion: 25.7 µM

Prompt: Any idea what TGI was measured for `COc1ccc(/C=N/n2c(Cc3ccc(Cl)cc3)n[nH]c2=O)c(OC)c1` ?
Completion: 61.2 µM

Prompt: Any idea what TGI was measured for `O=c1[nH]c2ccccc2c2oc(-c3ccccc3)nc12` ?
Completion: > 100 µM

Prompt: Any idea what TGI was measured for COc1cc(C2S/C(=C/c3ccccc3)C(=O)N2c2cccc([N+](=O)[O-])c2)cc(OC)c1OC (configuration not stated) ?
Completion: > 100 µM

Prompt: Any idea what TGI was measured for `CC(C)(NC1=NCCO1)c1ccccc1` ?
Completion: > 100 µM

Prompt: Any idea what TGI was measured for CCC(C)C1(O)OC2CC3(C)OC(=CC3=O)/C(C)=C\C3OC(=O)C1(C)C32 (configuration not stated) ?
Completion: 63 µM

Prompt: Any idea what TGI was measured for `CCOC(=O)/C(=C\c1ccc(F)cc1)C(C)=O` ?
Completion: 75.2 µM

Prompt: Any idea what TGI was measured for `Oc1cc(Cl)ccc1Cc1ccc(Cl)cc1O` ?
Completion: 57.8 µM

Prompt: Any idea what TGI was measured for `COC(=O)c1cccc(C(=O)OC)c1` ?
Completion: > 100 µM

Prompt: Any idea what TGI was measured for `Cc1n(CC(=O)c2ccccc2)nc2sc(N)n[n+]12` ?
Completion: > 100 µM

Prompt: Any idea what TGI was measured for NC(=O)NCCSC1CCCCC1O (configuration not stated) ?
Completion: > 100 µM

Prompt: Any idea what TGI was measured for `CNC(=O)OCc1[nH]ccc2c(C)c3nc4ccc(OC)cc4c3cc12` ?
Completion: 18.7 µM

Prompt: Any idea what TGI was measured for `O=C1C[C@H](c2ccccc2)C2(C(=O)c3ccccc3C2=O)[C@H](c2ccccc2)C1` ?
Completion: > 100 µM

Prompt: Any idea what TGI was measured for `COc1cc2c(cc1OCCCN1CCN(c3cc(=O)oc4c(C)c(OC)ccc34)CC1)N=C[C@@H]1CCCN1C2=O` ?
Completion: 4.03 µM

Prompt: Any idea what TGI was measured for `c1cncc(CNc2ncn[nH]2)c1` ?
Completion: > 100 µM

Prompt: Any idea what TGI was measured for `O=C(O)C1SCCS1` ?
Completion: > 100 µM

Prompt: Any idea what TGI was measured for `CC[C@@H]1CC[C@@H]2[C@H](CC[C@]3(C)[C@@H](OS(=O)(=O)c4ccc(C)cc4)CC[C@@H]23)[C@H]1CO` ?
Completion: > 100 µM

Prompt: Any idea what TGI was measured for `O=C1O[C@]2(c3ccccc3)C(c3ccccc3)=C[C@]2(C(=O)c2ccccc2)C1=O` ?
Completion: 98.6 µM

Prompt: Any idea what TGI was measured for `O=C1C=CC(=O)c2c1ncc1c2nc2sccn21` ?
Completion: > 100 µM

Prompt: Any idea what TGI was measured for `CC[C@@]1(O)C(=O)OCc2c1cc1n(c2=O)Cc2cc3c(NC(=O)CN)cccc3nc2-1` ?
Completion: 3.79 µM

Prompt: Any idea what TGI was measured for `COc1ccc(-c2csc3c2-n2cccc2C3=O)cc1O` ?
Completion: > 46.6 µM

Prompt: Any idea what TGI was measured for `Cc1cc2nc3c4cccc(O)c4n(CCN(C)C)c3nc2cc1C` ?
Completion: 52.9 µM

Prompt: Any idea what TGI was measured for `Cc1cc([N+](=O)[O-])ccc1N=NC(=O)NNc1ccc([N+](=O)[O-])cc1C` ?
Completion: 31.5 µM
